# System: NCI-H460
# protocol notes: Soft agar assay, flavopiridol on already formed one week colonies
# Assay type: cell-based
# conditions: Homo sapiens, 168 h, added to colonies formed after 7 days of incubation, read-out: Flavopiridol IC50 (uM) on Formed Colonies, Average ± Standard Error
Structures can show the parent of a compound that is named as a salt.
endpoint: IC50 (µM)
State the answer as a number, implicitly in µM.

The compound identified as CN1CC[C@H](c2c(O)cc(O)c3c(=O)cc(-c4ccccc4Cl)oc23)[C@H](O)C1 [Flavopiridol, hydrochloride dihydrate] registered its IC50 at 2.4

---

# Test system: tumor cells
# protocol notes: Automated soft agar assay, 96-well plates, Calcein AM stained method
# Type: cell-based
# conditions: flavopiridol added immediately after plating, read-out: IC50s (μM) with Flavopiridol 96-well
# Experimental: It was determined that when plating with the test compound, the individual components, i.e., agarose, cells and compound, were more evenly distributed if premixed in a separate plate before being transferred to the 96-well plate. […] The fluorescence for calcein AM (after cleavage in live cells) is excitation=485+20 nm and emission=530+20 nm. For analysis, the data provided by the CytoFluor™ are analyzed in EXCEL™. The DMSO control wells are averaged and the standard deviation determined. […]
Structures can show the parent of a compound that is named as a salt.
endpoint: IC50

The compound identified as CN1CC[C@H](c2c(O)cc(O)c3c(=O)cc(-c4ccccc4Cl)oc23)[C@H](O)C1 [Flavopiridol, hydrochloride dihydrate] registered its IC50 at 0.6 µM

---

# Tested on: PC-3
# protocol notes: Soft agar assay, flavopiridol on already formed one week colonies
# Assay type: cell-based
# conditions: Homo sapiens, 168 h, added to colonies formed after 7 days of incubation, read-out: Flavopiridol IC50 (uM) on Formed Colonies, Average ± Standard Error
# Protocol: 25 μL of 10 μM calcein AM (in HBSS) is added to each well and allowed to incubate at 37 deg. C. for at least one hour. The plate is then read in a Cytofluor™ 4000 (3 counts/well) with a gain of 40. The fluorescence for calcein AM (after cleavage in live cells) is excitation=485+20 nm and emission=530+20 nm. For analysis, the data provided by the CytoFluor™ are analyzed in EXCEL™. The DMSO control wells are averaged and the standard deviation determined. […]
Structures can show the parent of a compound that is named as a salt.
endpoint: IC50 (µM)
State the answer as a number, implicitly in µM.

The compound identified as CN1CC[C@H](c2c(O)cc(O)c3c(=O)cc(-c4ccccc4Cl)oc23)[C@H](O)C1 [Flavopiridol, hydrochloride dihydrate] registered its IC50 at 1.7

---

# System: tumor cells
# protocol notes: Traditional soft agar assay, 24-well tray, visual counting of colonies
# Type: cell-based
# conditions: added immediately after plating; 24-well, visual counting; read-out: IC50s Determined from Colony Counting
Structures can show the parent of a compound that is named as a salt.
endpoint: pIC50
For clarity, pIC50 is expressed as the negative log10 of concentration in mol/L.

The compound identified as CN1CC[C@H](c2c(O)cc(O)c3c(=O)cc(-c4ccccc4Cl)oc23)[C@H](O)C1 [Flavopiridol, hydrochloride dihydrate] registered its pIC50 at 6.40
